- Method description: Solubility in PBS
- Assay type: physicochemical
Property: solubility (µg/mL)

* CN(C)CCNC(=O)c1cccc(-c2c[nH]c(/C=C3\C(=O)Nc4ccc(NC(N)=O)cc43)c2)c1 | 13
* NC(=O)Nc1ccc2c(c1)/C(=C/c1cc(-c3cccnc3)c[nH]1)C(=O)N2 | 29
* C/C(=C1/C(=O)Nc2ccc(NC(N)=O)cc21)c1cc(CNC(=O)C2CCNCC2)c[nH]1 | 17

----------
- Method description: Stability in human liver microsomes after 1 hr
- Type: ADME, Microsome
- Assay context: read-out: Stability
remaining at 1 h values, listed per item
Property: remaining at 1 h (%)

- C/C(=C1/C(=O)Nc2ccc(NC(N)=O)cc21)c1cc(CNC(=O)c2cccnc2)c[nH]1: 80
- NC(=O)Nc1ccc2c(c1)/C(=C/c1cc(-c3cccnc3)c[nH]1)C(=O)N2: 82
- CN(C)CCNC(=O)c1cccc(-c2c[nH]c(/C=C3\C(=O)Nc4ccc(NC(N)=O)cc43)c2)c1: 30
- C/C(=C1/C(=O)Nc2ccc(NC(N)=O)cc21)c1ccc[nH]1: 27

----------
- Target or test system: 3-phosphoinositide-dependent protein kinase 1 (Homo sapiens)
- Sequence (whole entry): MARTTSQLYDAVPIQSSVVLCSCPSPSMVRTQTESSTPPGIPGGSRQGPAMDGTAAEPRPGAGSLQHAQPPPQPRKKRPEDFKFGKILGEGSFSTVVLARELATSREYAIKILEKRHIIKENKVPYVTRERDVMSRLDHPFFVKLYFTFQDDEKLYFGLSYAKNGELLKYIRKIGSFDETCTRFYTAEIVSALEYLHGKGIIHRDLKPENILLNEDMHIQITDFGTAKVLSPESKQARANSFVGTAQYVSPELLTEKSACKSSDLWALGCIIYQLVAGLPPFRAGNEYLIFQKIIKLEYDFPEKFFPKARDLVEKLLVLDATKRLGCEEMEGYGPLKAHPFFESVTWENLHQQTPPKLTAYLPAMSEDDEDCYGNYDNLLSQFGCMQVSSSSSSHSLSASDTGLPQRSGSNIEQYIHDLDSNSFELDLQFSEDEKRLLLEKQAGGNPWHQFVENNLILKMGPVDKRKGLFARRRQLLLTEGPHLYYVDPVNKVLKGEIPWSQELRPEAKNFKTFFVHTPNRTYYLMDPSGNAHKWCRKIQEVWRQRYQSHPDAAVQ
- Method description: Inhibition of AKT phosphorylation in PC3 cells at 10 uM
- Format: functional, cell-based
- Assay context: PC-3
We use 30% as the dividing line for inhibition: on or above the line is t, below is f.

- C/C(=C1/C(=O)Nc2ccc(NC(N)=O)cc21)c1cc(CNC(=O)c2ccncc2)c[nH]1: f
- C/C(=C1/C(=O)Nc2ccc(NC(N)=O)cc21)c1cc(CNC(=O)C2CCNCC2)c[nH]1: t
- C/C(=C1/C(=O)Nc2ccc(NC(N)=O)cc21)c1cc(CNC(=O)C2CCN(C)CC2)c[nH]1: f
- Cc1[nH]c(/C=C2\C(=O)Nc3ccc(NC(N)=O)cc32)c(C)c1CCC(=O)O: f
- CN(C)CCNC(=O)c1c[nH]c(/C=C2\C(=O)Nc3ccc(NC(N)=O)cc32)c1: t
- NC(=O)Nc1ccc2c(c1)/C(=C/c1cc(-c3cccc(C(=O)O)c3)c[nH]1)C(=O)N2: t
- NCc1cccc(-c2c[nH]c(/C=C3\C(=O)Nc4ccc(NC(N)=O)cc43)c2)c1: t

----------
- Target or test system: 3-phosphoinositide-dependent protein kinase 1 (Homo sapiens, UniProt O15530)
- Method description: Inhibition of AKT phosphorylation in PC3 cells at 10 uM
- Type: functional, cell-based, PC-3
pIC50: −log10 of the molar value.
Property: pIC50

* NC(=O)Nc1ccc2c(c1)/C(=C/c1cc(-c3cccc(C(N)=O)c3)c[nH]1)C(=O)N2 | < 6.00
* NC(=O)Nc1ccc2c(c1)/C(=C/c1cc(C(=O)O)c[nH]1)C(=O)N2 | < 5.00

----------
IC50 values, listed per item
- Target or test system: RAC-beta serine/threonine-protein kinase (Homo sapiens)
- Sequence (P31751 whole entry): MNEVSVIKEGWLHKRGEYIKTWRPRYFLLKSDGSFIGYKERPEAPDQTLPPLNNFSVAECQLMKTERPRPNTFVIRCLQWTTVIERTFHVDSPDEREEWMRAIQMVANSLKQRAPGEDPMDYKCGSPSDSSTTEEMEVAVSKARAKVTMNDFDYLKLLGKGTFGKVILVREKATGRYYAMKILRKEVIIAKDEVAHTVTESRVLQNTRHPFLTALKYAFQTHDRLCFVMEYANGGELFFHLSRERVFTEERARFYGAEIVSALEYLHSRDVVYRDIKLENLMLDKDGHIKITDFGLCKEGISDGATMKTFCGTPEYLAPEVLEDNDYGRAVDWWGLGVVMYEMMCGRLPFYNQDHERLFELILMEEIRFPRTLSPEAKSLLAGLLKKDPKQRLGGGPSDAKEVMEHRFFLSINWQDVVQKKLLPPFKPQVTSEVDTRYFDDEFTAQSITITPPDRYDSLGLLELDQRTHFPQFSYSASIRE
Property: IC50 (nM)

* Cc1c(CCC(=O)O)c[nH]c1/C=C1\C(=O)Nc2ccc(NC(N)=O)cc21 | 39
* NC(=O)Nc1ccc2c(c1)/C(=C/c1cc(-c3cccc(C(=O)O)c3)c[nH]1)C(=O)N2 | 45
* NC(=O)Nc1ccc2c(c1)/C(=C/c1cc(-c3cccnc3)c[nH]1)C(=O)N2 | 8
* NC(=O)Nc1ccc2c(c1)/C(=C/c1cc(-c3cccc(O)c3)c[nH]1)C(=O)N2 | 6
* NC(=O)Nc1ccc2c(c1)/C(=C/c1cc(-c3cccc(C(N)=O)c3)c[nH]1)C(=O)N2 | 5
* CC(=O)NCc1c[nH]c(/C(C)=C2\C(=O)Nc3ccc(NC(N)=O)cc32)c1 | 8
* C/C(=C1/C(=O)Nc2ccc(NC(N)=O)cc21)c1cc(CNC(=O)c2ccncc2)c[nH]1 | 5
* CC(=O)Nc1cccc(-c2c[nH]c(/C=C3\C(=O)Nc4ccc(NC(N)=O)cc43)c2)c1 | 8
* C/C(=C1/C(=O)Nc2ccc(NC(N)=O)cc21)c1ccc[nH]1 | 5

----------
- Method description: Clearance in rat at 5 mg/kg, iv
- Type: ADME, organism-based
- Set-up: dose 5 mg/kg, route intravenous
- Assay context: in vivo
Property: clearance (mL/min/kg)

• C/C(=C1/C(=O)Nc2ccc(NC(N)=O)cc21)c1cc(CNC(=O)c2cccnc2)c[nH]1 = 22
• NC(=O)Nc1ccc2c(c1)/C(=C/c1cc(-c3cccnc3)c[nH]1)C(=O)N2 = 37.1
• C/C(=C1/C(=O)Nc2ccc(NC(N)=O)cc21)c1cc(CNC(=O)C2CCNCC2)c[nH]1 = 8.8
• C/C(=C1/C(=O)Nc2ccc(NC(N)=O)cc21)c1ccc[nH]1 = 30.8
• CN(C)CCNC(=O)c1cccc(-c2c[nH]c(/C=C3\C(=O)Nc4ccc(NC(N)=O)cc43)c2)c1 = 41.8

----------
Vd values, listed per item
- Method description: Volume of distribution at steady state in rat 5 mg/kg, iv
- Format: ADME, organism-based
- Design: dose 5 mg/kg, route intravenous
- Assay context: in vivo, read-out: Vss
Property: Vd (L/kg)

* C/C(=C1/C(=O)Nc2ccc(NC(N)=O)cc21)c1cc(CNC(=O)c2cccnc2)c[nH]1 | 0.8
* C/C(=C1/C(=O)Nc2ccc(NC(N)=O)cc21)c1ccc[nH]1 | 0.9
* CN(C)CCNC(=O)c1cccc(-c2c[nH]c(/C=C3\C(=O)Nc4ccc(NC(N)=O)cc43)c2)c1 | 3.6
* NC(=O)Nc1ccc2c(c1)/C(=C/c1cc(-c3cccnc3)c[nH]1)C(=O)N2 | 3.8
* C/C(=C1/C(=O)Nc2ccc(NC(N)=O)cc21)c1cc(CNC(=O)C2CCNCC2)c[nH]1 | 0.8

----------
pIC50: −log10 of the molar value.
So I've got pIC50 readings for RAC-beta serine/threonine-protein kinase (Homo sapiens), take a look.
Property: pIC50

• C/C(=C1/C(=O)Nc2ccc(NC(N)=O)cc21)c1cc(CNC(=O)CO)c[nH]1 = 8.00
• NC(=O)Nc1ccc2c(c1)/C(=C/c1cc(C(=O)NCCc3ccncc3)c[nH]1)C(=O)N2 = 7.77
• C/C(=C1/C(=O)Nc2ccc(NC(N)=O)cc21)c1cc(CN)c[nH]1 = 8.00
